STUDY SYSTEM: Dipeptidyl peptidase 8 (Homo sapiens)
Sequence (Q6V1X1 whole entry): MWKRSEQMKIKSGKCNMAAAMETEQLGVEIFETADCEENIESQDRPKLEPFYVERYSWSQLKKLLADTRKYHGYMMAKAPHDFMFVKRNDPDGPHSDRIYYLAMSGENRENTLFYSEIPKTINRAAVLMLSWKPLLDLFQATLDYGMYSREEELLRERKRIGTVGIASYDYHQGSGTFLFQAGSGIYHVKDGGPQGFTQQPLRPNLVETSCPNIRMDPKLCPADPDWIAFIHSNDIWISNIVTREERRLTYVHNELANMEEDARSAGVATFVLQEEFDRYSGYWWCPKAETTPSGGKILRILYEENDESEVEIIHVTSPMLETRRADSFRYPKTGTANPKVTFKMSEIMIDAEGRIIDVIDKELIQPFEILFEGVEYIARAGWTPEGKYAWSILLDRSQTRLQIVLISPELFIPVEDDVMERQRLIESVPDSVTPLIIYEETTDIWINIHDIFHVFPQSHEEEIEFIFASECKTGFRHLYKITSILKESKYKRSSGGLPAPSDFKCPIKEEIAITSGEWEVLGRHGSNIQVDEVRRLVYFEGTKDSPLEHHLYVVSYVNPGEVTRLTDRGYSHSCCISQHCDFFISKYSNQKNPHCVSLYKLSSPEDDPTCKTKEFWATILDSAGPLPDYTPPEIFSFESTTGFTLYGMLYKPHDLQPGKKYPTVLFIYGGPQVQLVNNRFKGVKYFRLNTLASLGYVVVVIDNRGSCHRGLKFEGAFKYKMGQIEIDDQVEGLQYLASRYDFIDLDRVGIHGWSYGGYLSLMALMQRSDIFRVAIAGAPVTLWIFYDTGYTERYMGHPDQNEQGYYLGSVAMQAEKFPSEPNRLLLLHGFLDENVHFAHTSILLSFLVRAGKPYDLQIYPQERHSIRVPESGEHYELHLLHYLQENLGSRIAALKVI
REPORTED PROPERTY: IC50

Returns the measured IC50 for the input molecule. Input: "N[C@@H](CCC(=O)N1Cc2ccccc2C1)C(=O)N1CCSC1"
> 20 µM

Reference source: ChEMBL document CHEMBL1153357
